Hello, the source for this data is PubChem BioAssay AID504383, in case you need it.

# TEST SYSTEM: Troponin I, cardiac muscle (Homo sapiens) + Troponin T, cardiac muscle (Homo sapiens) + Troponin C, slow skeletal and cardiac muscles (Homo sapiens) (UniProt P19429+P45379+P63316)
# PROCEDURE TEXT: cardiac RTF calcium sensitivity activators, confirmation, biochemical, IANBD-TnC fluorescence, triplicate (AID 504383);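 further: 0% = DMSO at 0.472 mM calcium and 100% = DMSO at 2.9 mM calcium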
# STUDY CONDITIONS: IANBD-labeled cardiac RTF, Ca2+ sensitivity fluorescence; at 7.2 µM; stronger effect = higher value; scaled from EC20 to saturating calcium; tested at EC20 calcium, 0.472 mM
Among all 2,500 compounds or so, about 1,200 (48%) were called active. The set was probably picked from earlier hits. The list shows a part of the results.
Classify on activation using band A = under 7%, band B = from 7% up to 30%, band C = 30% and over

Lab note: which band did CCOc1ccc(Cn2nnc(C(=O)NCCc3ccccc3)c2N)cc1 land in?
band C

Another compound: Cc1cnc(C(=O)Nc2nnc(SCc3c(Cl)cccc3Cl)s2)cn1
band B

Another compound: CCOc1ccc(Nc2nc(N)c([N+](=O)[O-])c(NCc3ccccc3)n2)cc1
band B

Another compound: Cc1ccccc1NC(=S)Nc1ccc(Br)cc1
band B

Another compound: COC1=CC2(O)CCCC2=CC1=O (configuration not stated)
band A

Another compound: Cc1ccc(NC(=O)Cn2ccnc2)cc1C
band A

Another compound: CN1CCN(/N=C/c2ccc(OCc3ccccc3)cc2)CC1
band C

Another compound: O=C(COC(=O)C1CCC(=O)N1)Nc1ccc(Oc2ccccc2)cc1 (configuration not stated)
band A

Another compound: CN1CCN(CCOc2ccc(Cc3ccccc3)cc2)CC1
band B

Another compound: COc1ccc(OC(C)C(=O)Nc2cccc(OC)c2)cc1 (configuration not stated)
band B

Another compound: COc1cc(OC)c(C(=O)OC(C)C(=O)Nc2cccc(C(F)(F)F)c2)cc1OC (configuration not stated)
band C

Another compound: O=C(COC(=O)C1CCCCC1)Nc1ccc([N+](=O)[O-])cc1
band C

====

# TEST SYSTEM: Troponin I, cardiac muscle (Homo sapiens) + Troponin T, cardiac muscle (Homo sapiens) + Troponin C, slow skeletal and cardiac muscles (Homo sapiens) (UniProt P19429+P45379+P63316)
# PROCEDURE TEXT: cardiac RTF calcium sensitivity activators, confirmation, biochemical, IANBD-TnC fluorescence, triplicate (AID 504383);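 further: 0% = DMSO at 0.472 mM calcium and 100% = DMSO at 2.9 mM calcium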
# STUDY CONDITIONS: IANBD-labeled cardiac RTF, Ca2+ sensitivity fluorescence; at 7.2 µM; scaled from EC20 to saturating calcium; tested at EC20 calcium, 0.472 mM
Hit rate of the full screen: of about 2,500 compounds, about 1,200 (48%) were called active.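 How the source made its calls: active means mean activation above the low control average plus 3 SD, as set in the primary screen (cut at about 12% in these data); inactive means the rest.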 So high a share suggests a set chosen from earlier hits. Some of the results follow.
Lab note: assign the record to one of Yes (active), No (inactive)

What was the test verdict on C=C[C@@](C)(O)CC[C@@H]1[C@@]2(C)CCCC(C)(C)[C@@H]2CC[C@@]1(C)O ?
No

Another compound: COc1ccc(C2c3ccc(O)cc3Oc3ncn(CCCO)c(=N)c32)cc1OC (stereo not given)
No

Another compound: COc1cc(/C=C(\C#N)c2nc3ccccc3o2)ccc1O
No

Another compound: O=C(c1ccc(F)cc1)N1CCN=C1c1ccccc1
No

Another compound: C/C(=N\NC(=O)c1ccccc1)c1ccc(NC(=O)c2cccs2)cc1
No

Another compound: O=C(CN1C(=O)c2ccccc2C1=O)N1CCN=C1c1ccccc1
Yes

Another compound: CCOC(=O)Cc1csc(N(C)C)n1
No

Another compound: CCN(CC)c1ccc(/C=C2/C(=O)c3ccc(C(=O)O)cc3C2=O)cc1
Yes

Another compound: O=C(O)c1cccc([N+](=O)[O-])c1C(=O)Nc1cccc2ccccc12
Yes

Another compound: Cc1cccc(C)c1NC(=O)CN(C1CCCCC1)S(C)(=O)=O
No

Another compound: CN(C)c1ccc(/C=C2\CCC/C(=C\c3ccccc3)C2=O)cc1
No

Another compound: CCOC(=O)C1C(=O)NC(SCC(N)=O)=C(C#N)C1c1ccccc1OCC (stereo not given)
No

Another compound: CCOCCn1c(CN2CCN(CC)CC2)nc2c1c(=O)n(C)c(=O)n2C
Yes

Another compound: COC(=O)c1ccc(NC(=O)c2cccc(OC)c2)cc1
Yes

Another compound: CCOC(=O)c1c(C(C)(C)C)oc2ccc(OCC#N)cc12
No

Another compound: COc1cc(NC(=O)C2CCCCN2)ccc1OCC(C)C (stereo not given)
Yes

Another compound: CCCOc1ccc(-c2nn(-c3ccccc3)cc2/C=C2\SC(N)=NC2=O)cc1
No

Another compound: Cn1cccc1/C=C1\CCC/C(=C\c2cccn2C)C1=O
Yes

Another compound: Cc1cc(C)n(-c2nc3ccccc3nc2Nc2ccc3[nH]c(=O)[nH]c3c2)n1
Yes

Another compound: CCOc1ccc(N(C)c2ccc(/C=C3/SC(=S)NC3=O)cc2)cc1
Yes

Another compound: COC(=O)CCCCCN1C(=O)/C(=C\c2ccncc2)SC1=S
No

Another compound: COc1cc(NC(=O)[C@@H]2CCCN2S(=O)(=O)c2cccc3cccnc23)cc(OC)c1OC
No

Another compound: Cc1[nH]nc2c1C(c1cc(Br)cs1)C(C#N)=C(N)O2 (stereo not given)
No

Another compound: FC(F)(F)c1ccc(-c2nc(=S)[nH][nH]2)cc1
No

Another compound: C=CCn1c(SCC(=O)Nc2nccs2)nnc1-c1ccco1
No

Another compound: Cc1[nH]c2ccccc2c1/C=C/c1cc[n+](C)cc1
Yes

Another compound: N=c1c2c(ncn1Cc1ccco1)Oc1cc(O)ccc1C2c1ccccc1 (stereo not given)
Yes

Another compound: COC(=O)c1ccccc1-c1c2ccc(=N)cc-2oc2cc(N)ccc12
No

Another compound: CC1(C)c2[nH]c3ccccc3c2C[C@H]2C(=O)N(Cc3ccc(F)cc3)C(=O)N21
No

Another compound: COc1cc(/C=C(\C#N)c2nc3ccccc3s2)ccc1OCC(=O)Nc1ccccc1
Yes

Another compound: CN(C)c1ccc(C=C2SC(=S)NC2=O)cc1
Yes

Another compound: Nc1nc(NCCCN2CCOCC2)nc(Nc2cccc(Cl)c2)c1[N+](=O)[O-]
No

Another compound: CCOc1ccc(N=C2NC(=O)S/C2=C\c2ccc(N(C)C)cc2)cc1
Yes

Another compound: Cc1ccc2c(c1)c(/C=C/c1cc[n+](C)cc1)c(C)n2C
No

Another compound: CCOC(=O)[C@H]1[C@H]2COc3ccccc3[C@@H]2N2C(=O)CN(Cc3ccc(C)cc3)C(=O)[C@@]12C
No

Another compound: CCN(CC)c1ccc(/C=C/C(=O)c2ccc(Br)cc2)cc1
No

Another compound: COc1ccc(NC(=O)C2CC2)cc1OC1CCCC1
No

Another compound: Fc1ccc(-c2nnc(-c3ccc(Cl)cc3Cl)o2)cc1
Yes

Another compound: CCN(CC)c1ccc(/C=C2\SC(N)=NC2=O)cc1
Yes

Another compound: Cc1ccc2c(c1)N(CC(=O)N1CCCc3ccccc31)C(=O)C(C)O2 (stereo not given)
Yes

Another compound: CC1(C)CC2(CCCN(C(=S)Nc3ccccc3)C2)CCO1 (stereo not given)
Yes

Another compound: COc1ccc(C2c3ccc(O)cc3Oc3ncn(Cc4ccco4)c(=N)c32)cc1 (stereo not given)
Yes

Another compound: COc1ccc(NC(=O)c2cccc(-c3ccc(O)cc3)c2)cn1
No

Another compound: COc1cc(/C=C(/C#N)C(=O)NCCCc2ccccc2)ccc1OCC(=O)O
No

Another compound: COC(=O)c1ccc(NC(=O)c2snnc2-c2ccccc2)cc1
Yes

====

# TEST SYSTEM: Troponin I, cardiac muscle (Homo sapiens) + Troponin T, cardiac muscle (Homo sapiens) + Troponin C, slow skeletal and cardiac muscles (Homo sapiens) (UniProt P19429+P45379+P63316)
# PROCEDURE TEXT: cardiac RTF calcium sensitivity activators, confirmation, biochemical, IANBD-TnC fluorescence, triplicate (AID 504383);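 further: 0% = DMSO at 0.472 mM calcium and 100% = DMSO at 2.9 mM calcium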
# STUDY CONDITIONS: IANBD-labeled cardiac RTF, Ca2+ sensitivity fluorescence; at 7.2 µM; stronger effect = higher value; scaled from EC20 to saturating calcium; tested at EC20 calcium, 0.472 mM
Among all 2,500 compounds or so, about 1,200 (48%) were called active. The set was probably picked from earlier hits. The list shows a part of the results.
Kindly state activation for each of the entries shown.
Output spec: scalar in %, unitless text.

# query: activation of entry COc1cccc(CNC(=O)C2CCCN(c3nc4ccccc4o3)C2)c1 (stereo unspecified)
1.39

Another compound: Cc1ccc(C2NC(=O)c3c(sc4c3CCN(C)C4)N2)s1 (stereo unspecified)
5.94

Another compound: CSc1ccc(C2NC(=O)c3c(sc4c3CCN(C)C4)N2)cc1 (stereo unspecified)
22.9

Another compound: Cc1cc2nc(C3CCCN(C(=O)NCc4ccccc4)C3)[nH]c2cc1C (stereo unspecified)
35.4

Another compound: Cc1ccc(C2NC(=O)c3c(sc4c3CCN(C)C4)N2)o1 (stereo unspecified)
12.6

Another compound: CCN(CC)c1ccc(/C=C(/C#N)C(=O)NC(C)C)o1
9.75

Another compound: N#C/C(=C\c1ccc(O)c(O)c1)C(=O)NCCCc1ccccc1
4.22

Another compound: CCN(CC)c1ccc(/C=C(\C#N)C(=O)NCc2ccccc2)cc1
60.6

Another compound: CC(C)NC(=O)/C(C#N)=C\c1ccc(N(C)C)o1
215

Another compound: CC(C)NC(=O)/C(C#N)=C/c1ccc(N(C)C)o1
7.34

Another compound: CN1CCc2c(sc3c2C(=O)NC(c2ccccn2)N3)C1 (stereo unspecified)
1.45
